Just for reference, patent US20230147840A1 is where these values come from.

target: T1, Human CD137 extracellular domain (ECD) (human); assay: SPR Biacore 8K, Ab captured on anti-human Fc, CD137 as analyte, 37 C
T1 construct: also called Human CD137 ECD; recombinant human CD137
T1 sequence (chain, as listed by the source limits assumed): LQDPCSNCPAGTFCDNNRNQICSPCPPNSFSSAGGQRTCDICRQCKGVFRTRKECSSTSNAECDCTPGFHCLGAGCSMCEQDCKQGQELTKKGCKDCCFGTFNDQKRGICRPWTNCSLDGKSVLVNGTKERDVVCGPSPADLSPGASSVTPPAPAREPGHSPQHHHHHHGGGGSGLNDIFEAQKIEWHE

BINDER: H1573L0581 (antibody, V domains shown, Dual-Ig with an Fc; also called DualAE07; dBBDu183H1573/dBBDu072L0581) VH: QVQLVESGGGLVQPGRSLRLSCAASGFKFSNVWFHWVRQAPGKGLEWVAQIKDYYNAYAAYYAPSVKGRFTISRDDSKNSIYLQMNSLKTEDTAVYYCHYVHYASASTLLPAFGVDAWGQGTTVTVSS VL: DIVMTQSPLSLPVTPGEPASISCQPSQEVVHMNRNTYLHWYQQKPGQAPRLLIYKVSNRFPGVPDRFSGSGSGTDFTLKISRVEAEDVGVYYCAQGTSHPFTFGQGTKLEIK
koff, s⁻¹: 0.00103
//
BINDER: H0888L0581 (antibody, V domains shown, Dual-Ig with an Fc; also called DualAE02; dBBDu183H0888/dBBDu072L0581) VH: QVQLVESGGGLVQPGRSLRLSCAASGFKFSNVWMHWVRQAPGKGLEWVAQIKDKWNAYAAYYAPSVKGRFTISRDDSKNSIYLQMNSLKTEDTAVYYCHYIHYASASTLLPAFGIDAWGQGTTVTVSS VL: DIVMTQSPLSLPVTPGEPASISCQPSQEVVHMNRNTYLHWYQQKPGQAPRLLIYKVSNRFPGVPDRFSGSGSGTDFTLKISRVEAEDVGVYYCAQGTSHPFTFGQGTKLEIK
koff, s⁻¹: 0.00311
//
BINDER: H1579L0581 (antibody, V domains shown, Dual-Ig with an Fc; also called DualAE25; dBBDu183H1579/dBBDu072L0581) VH: QVQLVESGGGLVQPGRSLRLSCAASGFKFSHVWFHWVRQAPGKGLEWVAQIKDKYNAYAAYYAPSVKGRFTISRDDSKNSIYLQMNSLKTEDTAVYYCHYVHYASASTLLPAFGVDAWGQGTTVTVSS VL: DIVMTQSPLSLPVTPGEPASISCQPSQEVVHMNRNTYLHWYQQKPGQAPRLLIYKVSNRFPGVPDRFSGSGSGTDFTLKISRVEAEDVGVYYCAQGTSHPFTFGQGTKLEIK
koff, s⁻¹: 0.00406
